- MEASUREMENT NOTES: Pharmacokinetics after intravenous and oral administration in rats
- Assay type: in vivo
- TEST PARAMETERS: iv dosing, dose 1 mg/kg (Ex. 27: 0.72 mg/kg)
ENDPOINT LABEL: Clearance (CL) after iv dosing (mL/min/kg)
Write down the numeric answer in mL/min/kg and omit the unit.

Asked: Answer with the recorded Clearance (CL) after iv dosing of Cc1cc(Nc2ncc(Cl)c(NC3CC4CN(C(=O)CC#N)CC4C3)n2)nn1C (stereo not drawn) only.
Given back: 39.8

Asked: Quickly give me recorded Clearance (CL) after iv dosing for Cn1cc(Nc2ncc(Cl)c(NC3CCC4(CC3)CCN(C(=O)C(F)(F)F)CC4)n2)cn1
Given back: 45.7

Asked: Identify the reported Clearance (CL) after iv dosing for the following entry. Cc1cnc(Nc2cnn(C)c2)nc1NC1CN(C(=O)CC#N)CC12CCCC2 (stereo not drawn)
Given back: 61.7

Asked: Quickly give me recorded Clearance (CL) after iv dosing for Cc1c(Nc2ncc(Cl)c(NC3CC4CN(C(=O)CC#N)CC4C3)n2)cnn1C (stereo not drawn)
Given back: 81.8

Asked: Given the molecule Cc1cnc(Nc2cnn(C)c2)nc1NC1CC2CN(S(C)(=O)=O)CC2C1 (stereo not drawn) , write its reported Clearance (CL) after iv dosing.
Given back: 82.8

Asked: Consider the molecule Cn1cc(Nc2ncc(Cl)c(NC3CC4CN(S(C)(=O)=O)CC4C3)n2)cn1 (stereo not drawn) . State its measured Clearance (CL) after iv dosing.
Given back: 61.2

Asked: Note Clearance (CL) after iv dosing for the molecule shown: Cn1nc(C2CC2)cc1Nc1ncc(Cl)c(NC2CC3CN(C(=O)CC#N)CC3C2)n1 (stereo not drawn)
Given back: 36.3

Asked: Using known records, supply Clearance (CL) after iv dosing for Cc1cc(Nc2ncc(Cl)c(NC3CCC4(CC3)CCN(C(=O)CC#N)CC4)n2)nn1C
Given back: 44.3

Asked: Output Clearance (CL) after iv dosing of Cc1nn(C)cc1Nc1ncc(Cl)c(NC2CC3CN(C(=O)CC#N)CC3C2)n1 (stereo not drawn)
Given back: 53.2

These entries and their values trace back to patent US9403801B2.
